Reported values of protein stability index for individual entries
experiment: protein stability index of a GFP-peptide fusion (yeast GPS) (PSI 1-4); higher = more stable; sorted into four equal gates, so the index is relative within each strain; details: san1∆
reported-metric: protein stability index

> print(dat)
                 biopolymer.sequence          reported.metric  measured.number
1            MAFRKSNVYLSLVNSYI [COB]  protein stability index             1.96
2           LEEEFVSNSEILKPFEK [RPT2]  protein stability index             3.05
3   NASANSTSFSFNAPATG [YOR098C/NUP1]  protein stability index             3.05
4           AIVLPMKRADKFKDMGI [RPT5]  protein stability index             3.09
5           GLRAVRKNRYVILQSDL [RPT3]  protein stability index             3.05
6           EKAVEEKPAVKSYASLL [RPT3]  protein stability index             2.92
7          SGHFSTDSRTGQSTILV [CDC53]  protein stability index             3.05
8           IDDRDYVGNKRLELAGQ [RET1]  protein stability index             3.05
9  KQQEQLEQQKQPTGLLK [YMR153W/NUP53]  protein stability index             2.97

----------
Reported values of protein stability index for individual entries
experiment: protein stability index of a GFP-peptide fusion (yeast GPS) (PSI 1-4); higher = more stable; sorted into four equal gates, so the index is relative within each strain; settings: ubr1∆
reported-metric: protein stability index

> print(dat)
           biopolymer.sequence  result
 1    IGFITSGTYHLNCGNGM [POP1]    2.92
 2    MAFQKDAKSSAYSSRFQ [RPL5]    2.92
 3   EGQLKPGDGSSYINVTF [RPC25]    3.02
 4    EPENNTVIEGVKEESQP [SWI3]    2.99
 5    TNEFVGSPSLTSPQYIP [NUT1]    2.93
 6    SMVYSNVGELIEKNVME [RRP4]    2.03
 7  FGVTKARWPAKSVKFVQ [RPL17A]    3.05
 8   VEIAYHKCDELITLFNK [RPO31]    2.96
 9    PKAMTDTDNECVAAWGV [HRT1]    3.05
10    PDLDTECFISMQSTSPA [SWI1]    2.93

----------
Reported values of protein stability index for individual entries
experiment: protein stability index of a GFP-peptide fusion (yeast GPS) (PSI 1-4); higher = more stable; sorted into four equal gates, so the index is relative within each strain; conditions: ubr1∆
reported-metric: protein stability index

> print(dat)
        biopolymer.sequence  measured.number
1  VLEDCRHLPMYTEFIDS [ITC1]             2.99
2  KSMSILNSFVNDIFERI [HTB1]             2.94
3  NNSLSYHSGRLLIQGPK [ITC1]             2.93
4  QRIAKNDPEYMDTSDDA [DLS1]             3.01
5  DSNTTEILTSVDVLGTH [SIR4]             3.04

----------
Reported values of protein stability index for individual entries
experiment: protein stability index of a GFP-peptide fusion (yeast GPS) (PSI 1-4); higher = more stable; sorted into four equal gates, so the index is relative within each strain; conditions: ubr1∆
reported-metric: protein stability index

> print(dat)
                 biopolymer.sequence          reported.metric  measured.number
1          DTVDRLIIKYQKYWESM [GAL11]  protein stability index             3.02
2  NPRKRAIPNSIIKRSNG [YMR153W/NUP53]  protein stability index             2.92
3           EKNGGLGWDLDAIIPFA [FAS2]  protein stability index             3.08
4           AGALNLASPEVKVHMDS [DIS3]  protein stability index             3.04

----------
experiment: protein stability index of a GFP-peptide fusion (yeast GPS) (PSI 1-4); higher = more stable; sorted into four equal gates, so the index is relative within each strain; conditions: ubr1∆
Reported values of protein stability index for individual entries
reported-metric: protein stability index

> print(dat)
                  biopolymer.sequence          reported.metric  measured.number
 1           KNYDATDKPFSSTQDVI [CSI1]  protein stability index             3.06
 2           MIISGSRDKTIKVWTIK [ASC1]  protein stability index             2.95
 3           IITQYVFESLEINNLIQ [ARP9]  protein stability index             2.96
 4           QLLDIAEFKKENLADLD [LIN1]  protein stability index             2.95
 5  PQGSTTNGGLFGSGTQN [YGR119C/NUP57]  protein stability index             3.02
 6          VKSVNDPSQNRLTGSLL [RPC37]  protein stability index             3.08
 7           GNSKDDLLDMIQFGAKN [ISW2]  protein stability index             2.92
 8           VVLVSGEGERFTVDKKI [SKP1]  protein stability index             2.97
 9         IKVEGAVGNLGNAVTVT [RPL22A]  protein stability index             3.06
10           YCDKNFRENMSKEETVD [PRE3]  protein stability index             2.92
11          ISEKDLVPKRCLFESLS [RPO31]  protein stability index             3.03
12   TGEAQVDNSPTTESNSR [YLR335W/NUP2]  protein stability index             3.06
13           MYGLTMEWPKDMLKYKE [ITC1]  protein stability index             3.07

----------
assay: protein stability index of a GFP-peptide fusion (yeast GPS) (PSI 1-4); higher = more stable; sorted into four equal gates, so the index is relative within each strain; conditions: san1∆
reported-metric: protein stability index

> print(dat)
                   biopolymer.sequence  measured.number
 1           DIAGQRDDALVVETITS [RRP42]             2.27
 2    HVNKRKRVSGTSQHSDS [YOR098C/NUP1]             2.22
 3            TQTYMQMIELNRQICLV [GRR1]             1.35
 4           VSLQNFSSSVSLSYMAF [RRP40]             1.76
 5            DDYDYVMYGTAYKFEEV [RPB8]             2.95
 6            RAGQRGYHSRTSINHKI [RPL3]                3
 7           KPNQTIMVLDASIGQAA [SRP54]             2.69
 8           CKNFEKTQLGSTMTEPV [GAL11]             2.58
 9           LIFIACNDEDKDLETLY [ECM29]              2.3
10            ILGELKRVKSYMDKAKQ [LRP1]             1.89
11           SPTPIQRITIPNVCNMK [PRP28]             2.04
12            IPSSYIKRTDEGGEAEF [ARP7]             3.16
13            QDDDFPLDDAGTIGWDL [MCD1]             3.36
14            AMEFIFGNSLICEDPET [SMC2]             1.37
15           KNGVIPEESKGSFKYIT [SWP82]             2.96
16          KCGVISPRFNVKIGDIE [RPS22A]             2.78
17           KYQKALHYLKKFKHIDD [SRP72]             2.57
18           SYSPTSPSYSPTSPSYS [RPO21]             2.78
19            DLKDILEKVVPLINVVV [BRR2]             2.37
20            RLELPVDFQNDLKDILE [BRR2]             2.78
21            ADLKKGKDLSPAINYTK [QCR2]             3.32
22  FWSFLDSLIFKDSSLNY [YJL039C/NUP192]             2.11
23            ARGTIEIVSDVKVVDAG [RPP0]             1.96
24            KVGAEMMMQQQLKNVQL [MED2]             2.96
25    PYSKNAVEQLAGCKIDN [YDL088C/ASM4]             2.41
26            EESIRESLQKRELLKSQ [SIR3]                3
27           CANKYMTTVSGRDAFHL [RPL10]             1.74
28           NFLQESYEVEHVIQIPL [TAF14]             2.55
29           SSLFQEKLLETNVSKQN [ECM29]             2.35
30            KSMSILNSFVNDIFERI [HTB1]             2.47
31            VVNDLVGEKLVVVVLEE [SIR3]             3.42
32           KPKAVARKSKEEREAAA [RPC53]             2.61
33  ANLLQINVDNDPFFAQS [YML103C/NUP188]             2.88
34            MGSRRYDSRTTIFSPEG [PRE9]             2.89
35            SILPTRDDLFVRNLQGI [NUT1]             2.05
36            NVKVIMATNRADTLDPA [RPT3]             1.94
37            IRCHREDCDLVIMALML [POP5]             2.01
38  EYRDLYTNSVELRSLSK [YMR129W/POM152]             3.24
39           ISEKDLVPKRCLFESLS [RPO31]             2.94
40            LINEILLKSNDPLLSLY [RGR1]             1.87
41    YPESISNELIEHFSHFG [YDL088C/ASM4]             2.89
42           ELNVEKLNTFNLQTFTH [SRP72]              1.9
43          INKYESSPSHIELVVTE [RPL17A]             2.05
44            DHNALPQRCTFAFEAID [POP1]             2.79
45            LGNVIVPNILSLDMNSM [NUT1]             2.04
46  PETCLFVSYFGKQIKST [YML103C/NUP188]             2.27
47            VSSRVRGYTCQFVDMVL [FAS1]             1.44
